// note: IC50 values for Aurora kinase A (Homo sapiens) were reported in different studies
measure: IC50 (µM)

Answered examples (4):
Query (molecule): CNc1nccc(-c2cccnc2Oc2ccc(Nc3nc4ccncc4[nH]3)c3ccccc23)n1 ; field requested: IC50 1.07

Query (molecule): Nc1ccnc2[nH]c(=O)c3ccccc3c12 ; field requested: IC50 3.01

Query (molecule): COc1ccc2nc(-c3n[nH]cc3/C=C/c3cncc(C#N)c3)[nH]c2c1 ; field requested: IC50 4.2

Query (molecule): COc1ccc(C(=O)Cn2nc(Nc3cc(C)[nH]n3)c3ccccc3c2=O)cc1 ; field requested: IC50 0.067

P = Cc1cc(Nc2cc(N3CCN(C)CC3)nc(Nc3ccc(N4CC(=O)N(C5CC5)CC4=O)cc3)n2)n[nH]1
Q = O=S(=O)(Nc1ccc(CCNc2ncnc3oc(-c4ccccc4)c(-c4ccccc4)c23)cc1)c1ccccc1
R = CN1CCN(c2ccc(C(=O)Nc3n[nH]c4c3CN(C(=O)[C@H](F)c3ccccc3)C4)cc2)CC1
S = CN1CCN(c2ccc(C(=O)Nc3cc(-c4ccc(NC(=O)Nc5cccnc5)cc4)n[nH]3)cc2)CC1
Order the records so the highest IC50 appears first and the lowest last. Return value: ordered labels per request. Q, P, S, R

====

// note: IC50 values for Aurora kinase A (Homo sapiens, UniProt O14965) were reported in different studies
measure: IC50 (nM)

Answered examples (3):
Query (compound): CN(C)c1ccc(-c2nc3c(N4CCN(CC(=O)Nc5nccs5)CC4)ccnc3[nH]2)cc1 ; field requested: IC50 870

Query (compound): CCn1cc(-c2ccnc3[nH]c(-c4cccc(CN5CCCC5)c4)cc23)c(-c2ccc(NC(=O)N(C)C)cc2)n1 ; field requested: IC50 366

Query (compound): CN(C)CCn1cc(-c2ccn3c(-c4ccc(C(N)=O)c(OCc5cccc(F)c5)c4)cnc3c2)cn1 ; field requested: IC50 5300

a = O=c1[nH]c2sccc2c(NC2CCCNC2)c1-c1nc2ccccc2[nH]1 (centres undefined)
b = CNC(=O)c1nn(C)c2c1C(C)(C)Cc1cnc(Nc3cccc(CN4CCN(C)CC4)c3)nc1-2
c = CCc1cccc(CC)c1NC(=O)c1nn(C)c2c1CCc1cnc(Nc3ccc(C(=O)N4CCCN(C)CC4)cc3OC)nc1-2
Order the records, beginning with the lowest IC50 and ending with the highest. Return value: ordered labels per request. c, a, b

I = Cc1cc(Nc2nn(CC(=O)c3ccc(C(F)(F)F)cc3)c(=O)c3ccccc23)n[nH]1
II = Cn1nc(C(N)=O)c2c1-c1nc(NCc3ccc(Br)cc3)ncc1CC2
For this pair, I and II , which shows a numerically higher IC50? Mark your answer with the label of the selected entry. II
(II: 1690 nM, I: 720 nM)

====

// note: IC50 values for Aurora kinase A (Homo sapiens, UniProt O14965) were reported in different studies
measure: IC50 (nM)

Query (compound): CCN(CC)c1ncc2c(n1)Nc1n[nH]c(C)c1N=C2c1ccc(C)cc1 ; field requested: IC50 268

A = O=C(Nc1ccc(Nc2nc(-c3cccnc3)cn3ccnc23)cc1)c1ccccc1
B = O=C1NCc2cccc(-c3cc4cc(OCc5ccccc5)ccc4[nH]3)c21
Consider entries A and B . Which has the numerically lower IC50? Mark your answer with the label of the selected entry. A

====

- system_name: Aurora kinase A (Homo sapiens)
- Sequence (O14965 whole entry): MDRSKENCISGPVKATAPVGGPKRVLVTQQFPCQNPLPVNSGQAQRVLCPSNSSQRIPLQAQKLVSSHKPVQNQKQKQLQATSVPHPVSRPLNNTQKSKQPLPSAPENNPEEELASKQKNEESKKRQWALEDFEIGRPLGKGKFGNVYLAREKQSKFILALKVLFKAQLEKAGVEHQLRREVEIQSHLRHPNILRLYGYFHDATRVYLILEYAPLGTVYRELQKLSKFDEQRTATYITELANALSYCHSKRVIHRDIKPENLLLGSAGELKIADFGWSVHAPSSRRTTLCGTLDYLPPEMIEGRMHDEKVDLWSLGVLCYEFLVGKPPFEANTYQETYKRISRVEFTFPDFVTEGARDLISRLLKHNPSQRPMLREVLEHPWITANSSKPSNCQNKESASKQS
pIC50: −log10 of the molar value.
// note: pIC50 values for Aurora kinase A (Homo sapiens) were reported in different studies
measure: pIC50

Query (compound): Cc1cc(Nc2nc(-c3ccccc3)nc3cc(N4CCN(C)CC4)ccc23)n[nH]1 ; field requested: pIC50 8.00

A = c1ccc2[nH]c(Nc3ncc(CCNc4ncnc5ccsc45)s3)nc2c1
B = CN1CCN(c2ccc(C(=O)Nc3cc(-c4ccc(CNC(=O)OCc5ccccc5)cc4)n[nH]3)cc2)CC1
For this pair, A and B , which shows a numerically higher pIC50? Mark your answer with the label of the selected entry. B

====

// note: IC50 values for Aurora kinase A (Homo sapiens, UniProt O14965) were reported in different studies
- system_name: Aurora kinase A (Homo sapiens, UniProt O14965)
- Sequence (O14965 whole entry): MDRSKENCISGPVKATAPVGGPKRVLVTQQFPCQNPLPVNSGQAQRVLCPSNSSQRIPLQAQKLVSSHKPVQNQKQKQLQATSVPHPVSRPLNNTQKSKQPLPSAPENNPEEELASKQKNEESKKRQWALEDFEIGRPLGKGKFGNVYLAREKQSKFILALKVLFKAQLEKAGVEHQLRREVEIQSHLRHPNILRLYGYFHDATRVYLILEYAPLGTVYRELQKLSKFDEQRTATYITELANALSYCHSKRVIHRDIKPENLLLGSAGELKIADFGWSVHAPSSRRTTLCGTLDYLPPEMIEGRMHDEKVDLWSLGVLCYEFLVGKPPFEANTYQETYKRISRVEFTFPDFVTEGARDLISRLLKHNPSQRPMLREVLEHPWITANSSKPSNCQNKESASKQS
measure: IC50 (nM)

Answered examples (2):
Query (molecule): CSc1ncc2c(n1)Nc1n[nH]c(C)c1N=C2c1cccc(Cl)c1 ; field requested: IC50 102

Query (molecule): CC(C)(C)c1ccc(C(=O)Nc2n[nH]c3c2CN(C(=O)c2ccco2)C3)cc1 ; field requested: IC50 41

P = Cn1cc(-c2cnc3c(Nc4cc(C5CCN(S(C)(=O)=O)CC5)ns4)nccn23)cn1
Q = COc1cc2c(Nc3ncc(C(=O)Nc4ccccc4)s3)ncnc2cc1OCCCN1CCOCC1
Consider entries P and Q . Which has the numerically lower IC50? Mark your answer with the label of the selected entry. Q
(Q: 4 nM, P: 170 nM)

====

- system_name: Aurora kinase A (Homo sapiens)
- Sequence (O14965 whole entry): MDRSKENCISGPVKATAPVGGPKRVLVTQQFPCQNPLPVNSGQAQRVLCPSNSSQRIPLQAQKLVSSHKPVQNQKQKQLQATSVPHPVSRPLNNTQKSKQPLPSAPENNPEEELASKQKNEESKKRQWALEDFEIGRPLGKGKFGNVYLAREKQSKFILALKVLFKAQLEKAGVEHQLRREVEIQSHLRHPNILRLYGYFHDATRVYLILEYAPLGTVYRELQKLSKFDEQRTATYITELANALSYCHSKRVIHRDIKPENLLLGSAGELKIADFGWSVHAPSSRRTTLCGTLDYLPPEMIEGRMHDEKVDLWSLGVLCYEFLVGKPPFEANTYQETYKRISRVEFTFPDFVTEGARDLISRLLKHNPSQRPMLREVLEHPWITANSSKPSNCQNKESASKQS
// note: IC50 values for Aurora kinase A (Homo sapiens) were reported in different studies
measure: IC50 (nM)

Query (compound): O=c1c2ccccc2c(Nc2n[nH]c3ccccc23)nn1-c1ccccc1 ; field requested: IC50 14000

P = O=C(Nc1ccccc1)Nc1ccc(-c2nn(CC3CCCO3)cc2-c2ccnc3[nH]ccc23)cc1 (centres undefined)
Q = O=C(Nc1ccc(Nc2ccnc3[nH]c(=O)c4ccccc4c23)cc1)c1cccc(C(F)(F)F)c1F
R = OCCNc1ncnc2oc(-c3ccccc3)c(-c3ccccc3)c12
S = COC(=O)c1cccc(NC(=O)c2cc(-n3cc(-c4cc(OC)cc(OC)c4)nn3)ccc2O)c1
Order the records, beginning with the lowest IC50 and ending with the highest. Return value: ordered labels per request. Q, R, S, P

====

// note: IC50 values for Aurora kinase A (Homo sapiens, UniProt O14965) were reported in different studies
- system_name: Aurora kinase A (Homo sapiens, UniProt O14965)
- Sequence (O14965 whole entry): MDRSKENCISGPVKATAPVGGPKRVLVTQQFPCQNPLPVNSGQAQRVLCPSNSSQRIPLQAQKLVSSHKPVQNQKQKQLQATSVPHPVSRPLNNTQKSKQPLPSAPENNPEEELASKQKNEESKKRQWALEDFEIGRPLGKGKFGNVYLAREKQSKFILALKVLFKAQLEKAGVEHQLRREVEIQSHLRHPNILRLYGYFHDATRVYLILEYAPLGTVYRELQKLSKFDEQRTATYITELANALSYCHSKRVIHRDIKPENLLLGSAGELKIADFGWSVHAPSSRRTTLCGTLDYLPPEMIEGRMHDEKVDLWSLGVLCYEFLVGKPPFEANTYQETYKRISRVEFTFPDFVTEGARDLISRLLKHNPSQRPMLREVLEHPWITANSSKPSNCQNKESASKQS
measure: IC50 (nM)

Query (molecule): COc1cc2ncnc(N3CCN(CC(=O)Nc4nccs4)CC3)c2cc1OC ; field requested: IC50 5900

Query (molecule): CNc1nccc(-c2cccnc2Oc2ccc(Nc3nc4ccccc4[nH]3)c3ccccc23)n1 ; field requested: IC50 19

I = Cc1cc(Nc2n[nH]c(=O)c3ccccc23)n[nH]1
II = COC(=O)c1ccc(Nc2nc(Nc3cc(C)[nH]n3)cc(N3CCN(C)CC3)n2)cc1
Consider entries I and II . Which has the numerically lower IC50? Mark your answer with the label of the selected entry. II
